Each record here notes measured IC50.
Test system: A2780cis cells
Test: Photo- and cytotoxic activity determination (MTT), A2780cis cells, normoxia or hypoxia
Format: cell-based
Conditions: normoxia; 1 h incubation + 1 h green light 520 nm, 1.5 mW cm^–2; 48 h drug-free medium; read-out: A2780cis light IC50
Description: Having shown that the Ir(III)-COUPY conjugates can sensitize both type I and II ROS through spectroscopic techniques and readily internalize into living cells, their photocytotoxicity was screened in various cancer cell lines. This screening included two representative melanoma cell lines (human A375 and […] human SK-MEL-28) and cancer cells with resistance to the clinical drug cisplatin. […] Phototherapeutic index (PI) was calculated as the ratio of dark to light IC50 value for each compound. […]
Numeric answer only, unit µM assumed.

[[record]]
test_smiles = "CCCCn1c2[n+](c3cc(C(=O)NC[C@H]4CC[C@H](C(=O)NCCCNC(=O)C[n+]5ccc(/C(C#N)=C6/C=C(C)c7ccc(N(CC)CC)cc7O6)cc5)CC4)ccc31)[Ir-3]13([c]4ccccc4-c4[nH]c5ccccc5[n+]41)([c]1ccccc1-c1[nH]c4ccccc4[n+]13)[n+]1c-2ccc2ccccc21"
numeric_readout = 0.93


Could you now look at the following compound, please?
-- ask Can you look up the measured IC50 of CCCCn1c2[n+](c3cc(C(=O)NCCCNC(=O)C[n+]4ccc(/C(C#N)=C5/C=C(C)c6ccccc6O5)cc4)ccc31)[Ir-3]13([c]4ccccc4-c4[nH]c5ccccc5[n+]41)([c]1ccccc1-c1[nH]c4ccccc4[n+]13)[n+]1c-2ccc2ccccc21 for me?
-- reply 61

###

System: A2780cis cells
Assay: Photo- and cytotoxic activity determination (MTT), A2780cis cells, normoxia or hypoxia
Format: cell-based
Settings: hypoxia; 520 nm; read-out: A2780cis Light 520 nm IC50 (microM) Hypoxia
Assay metric: IC50 (µM)
Numeric answer only, unit µM assumed.

Illustrative cases are given below, each with its answer.
[[record]]
test_smiles = "CCCCn1c2[n+](c3cc(C(=O)NCCCCCC(=O)NCCCNC(=O)C[n+]4ccc(/C(C#N)=C5/C=C(C)c6ccc(N(CC)CC)cc6O5)cc4)ccc31)[Ir-3]13([c]4ccccc4-c4[nH]c5ccccc5[n+]41)([c]1ccccc1-c1[nH]c4ccccc4[n+]13)[n+]1c-2ccc2ccccc21"
assay_metric = "IC50"
numeric_readout = 1.9

[[record]]
test_smiles = "CCCCn1c2[n+](c3cc(C(=O)NC[C@H]4CC[C@H](C(=O)NCCCNC(=O)C[n+]5ccc(/C(C#N)=C6/C=C(C)c7ccc(N(CC)CC)cc7O6)cc5)CC4)ccc31)[Ir-3]13([c]4ccccc4-c4[nH]c5ccccc5[n+]41)([c]1ccccc1-c1[nH]c4ccccc4[n+]13)[n+]1c-2ccc2ccccc21"
assay_metric = "IC50"
numeric_readout = 1.7


Could you now look at the following compound, please?
-- ask Can you look up the measured IC50 of CCCCn1c2[n+](c3cc(C(=O)NCCCNC(=O)C[n+]4ccc(/C(C#N)=C5/C=C(C)c6ccc(N(CC)CC)cc6O5)cc4)ccc31)[Ir-3]13([c]4ccccc4-c4[nH]c5ccccc5[n+]41)([c]1ccccc1-c1[nH]c4ccccc4[n+]13)[n+]1c-2ccc2ccccc21 for me?
-- reply 3.8

###

Test system: A2780
Assay: Photo- and cytotoxic activity determination (MTT), A2780 cells
Type: cell-based
Conditions: normoxia; 520 nm; dark tested up to 100 μM
Method: Having shown that the Ir(III)-COUPY conjugates can sensitize both type I and II ROS through spectroscopic techniques and readily internalize into living cells, their photocytotoxicity was screened in various cancer cell lines. This screening included two representative melanoma cell lines (human A375 and […] human SK-MEL-28) and cancer cells with resistance to the clinical drug cisplatin. […] Phototherapeutic index (PI) was calculated as the ratio of dark to light IC50 value for each compound. […]
Assay metric: A2780 PI (phototherapeutic index), IC50 dark/IC50 irradiated

Illustrative cases are given below, each with its answer.
[[record]]
test_smiles = "CCCCn1c2[n+](c3cc(C(=O)NCCCCCC(=O)NCCCNC(=O)C[n+]4ccc(/C(C#N)=C5/C=C(C)c6ccc(N(CC)CC)cc6O5)cc4)ccc31)[Ir-3]13([c]4ccccc4-c4[nH]c5ccccc5[n+]41)([c]1ccccc1-c1[nH]c4ccccc4[n+]13)[n+]1c-2ccc2ccccc21"
result = "> 56"

[[record]]
test_smiles = "CCCCn1c2[n+](c3cc(C(=O)OC)ccc31)[Ir-3]13([c]4ccccc4-c4[nH]c5ccccc5[n+]41)([c]1ccccc1-c1[nH]c4ccccc4[n+]13)[n+]1c-2ccc2ccccc21"
result = "> 25"

[[record]]
test_smiles = "CCCCn1c2[n+](c3cc(C(=O)NCCCNC(=O)C[n+]4ccc(/C(C#N)=C5/C=C(C)c6ccccc6O5)cc4)ccc31)[Ir-3]13([c]4ccccc4-c4[nH]c5ccccc5[n+]41)([c]1ccccc1-c1[nH]c4ccccc4[n+]13)[n+]1c-2ccc2ccccc21"
result = "> 14"

[[record]]
test_smiles = "CCCCn1c2[n+](c3cc(C(=O)NCCCNC(=O)C[n+]4ccc(/C(C#N)=C5/C=C(C)c6ccc(N(CC)CC)cc6O5)cc4)ccc31)[Ir-3]13([c]4ccccc4-c4[nH]c5ccccc5[n+]41)([c]1ccccc1-c1[nH]c4ccccc4[n+]13)[n+]1c-2ccc2ccccc21"
result = "> 94"


Could you now look at the following compound, please?
-- ask Can you look up the measured A2780 PI (phototherapeutic index), IC50 dark/IC50 irradiated of CCCCn1c2[n+](c3cc(C(=O)NC[C@H]4CC[C@H](C(=O)NCCCNC(=O)C[n+]5ccc(/C(C#N)=C6/C=C(C)c7ccc(N(CC)CC)cc7O6)cc5)CC4)ccc31)[Ir-3]13([c]4ccccc4-c4[nH]c5ccccc5[n+]41)([c]1ccccc1-c1[nH]c4ccccc4[n+]13)[n+]1c-2ccc2ccccc21 for me?
-- reply > 53

###

Each record here notes measured IC50.
Tested on: A2780cis cells
Assay: Photo- and cytotoxic activity determination (MTT), A2780cis cells, normoxia or hypoxia
Format: cell-based
Settings: A2780cis; hypoxia; dark; read-out: A2780cis Dark IC50 (microM) Hypoxia

Illustrative cases are given below, each with its answer.
[[record]]
compound = "CCN(CC)c1ccc2c(c1)O/C(=C(/C#N)c1cc[n+](C)cc1)C=C2C [1a]"
assay_metric = "IC50"
result = "> 250 µM"

[[record]]
compound = "CC1=C/C(=C(\\C#N)c2cc[n+](C)cc2)Oc2ccccc21 [1b]"
assay_metric = "IC50"
result = "> 250 µM"


-- ask State its IC50 on A2780cis cells: NCC(=O)CCC(=O)O [5-ALA, 5-aminolevulinic acid, reference compound]
-- reply > 250 µM

-- ask State its IC50 on A2780cis cells: CC1=C/C(=C(\C#N)c2cc[n+](C)cc2)Oc2c1cc1c3c2CCCN3CCC1 [1c]
-- reply 20 µM

###

Tested on: A375
Assay: Photo- and cytotoxic activity determination (MTT), A375 cells
Format: cell-based, human
Settings: Homo sapiens, A-375; normoxia; 1 h incubation + 1 h green light 520 nm, 1.5 mW cm^–2; 48 h drug-free medium; read-out: A375 light IC50
Each record here notes measured pIC50.
A value of pIC50 is the negative decimal logarithm of a concentration given in moles per litre.

[[record]]
test_smiles = "CC1=C/C(=C(\\C#N)c2cc[n+](C)cc2)Oc2c1cc1c3c2CCCN3CCC1"
assay_metric = "pIC50"
numeric_readout = 6.51

[[record]]
test_smiles = "CCN(CC)c1ccc2c(c1)O/C(=C(/C#N)c1cc[n+](C)cc1)C=C2C"
assay_metric = "pIC50"
numeric_readout = 5.96


-- ask Can you look up the measured pIC50 of CC1=C/C(=C(\C#N)c2cc[n+](C)cc2)Oc2ccccc21 for me?
-- reply 5.00

###

Tested on: A2780cis cells
Experiment: Photo- and cytotoxic activity determination (MTT), A2780cis cells, normoxia or hypoxia
Type: cell-based
Conditions: A2780cis; normoxia 21% O2; 1 h incubation + 1 h green light 520 nm; 48 h drug-free; read-out: Normoxia 520 nm IC50
Assay metric: IC50

-- ask Can you look up the measured IC50 of CC1=C/C(=C(\C#N)c2cc[n+](C)cc2)Oc2ccccc21 [1b] for me?
-- reply > 250 µM

###

Test system: A2780cis cells
Experiment: Photo- and cytotoxic activity determination (MTT), A2780cis cells, normoxia or hypoxia
Format: cell-based
Details: A2780cis; hypoxia 2% O2; 520 nm; dark tested up to 250 μM
Each record here notes measured Hypoxia PI (phototherapeutic index).

Illustrative cases are given below, each with its answer.
[[record]]
test_smiles = "CCN(CC)c1ccc2c(c1)O/C(=C(/C#N)c1cc[n+](C)cc1)C=C2C"
result = "> 100.0"

[[record]]
test_smiles = "CCCCn1c2[n+](c3cc(C(=O)NCCCNC(=O)C[n+]4ccc(/C(C#N)=C5/C=C(C)c6ccccc6O5)cc4)ccc31)[Ir-3]13([c]4ccccc4-c4[nH]c5ccccc5[n+]41)([c]1ccccc1-c1[nH]c4ccccc4[n+]13)[n+]1c-2ccc2ccccc21"
result = "> 8.1"

[[record]]
test_smiles = "CC1=C/C(=C(\\C#N)c2cc[n+](C)cc2)Oc2c1cc1c3c2CCCN3CCC1"
result = 36.4


-- ask Can you look up the measured Hypoxia PI (phototherapeutic index) of CCCCn1c2[n+](c3cc(C(=O)OC)ccc31)[Ir-3]13([c]4ccccc4-c4[nH]c5ccccc5[n+]41)([c]1ccccc1-c1[nH]c4ccccc4[n+]13)[n+]1c-2ccc2ccccc21 for me?
-- reply > 22.7
